target: cloned human H3 receptors, stably expressed in SK-N-MC cells (Homo sapiens, UniProt Q9Y5N1)
Sequence (Q9Y5N1 whole entry): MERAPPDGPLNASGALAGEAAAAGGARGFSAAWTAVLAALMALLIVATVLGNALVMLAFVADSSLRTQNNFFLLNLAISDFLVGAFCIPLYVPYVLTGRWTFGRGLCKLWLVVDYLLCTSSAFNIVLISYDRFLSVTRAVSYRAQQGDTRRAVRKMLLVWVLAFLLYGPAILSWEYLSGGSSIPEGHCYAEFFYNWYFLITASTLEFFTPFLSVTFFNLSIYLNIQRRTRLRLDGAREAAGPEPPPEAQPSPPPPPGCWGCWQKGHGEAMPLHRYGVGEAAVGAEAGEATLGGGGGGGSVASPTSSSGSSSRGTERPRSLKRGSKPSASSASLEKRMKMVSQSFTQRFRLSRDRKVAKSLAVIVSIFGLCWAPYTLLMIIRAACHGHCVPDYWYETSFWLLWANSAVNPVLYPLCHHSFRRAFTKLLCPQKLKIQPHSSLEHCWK
Structures can show the parent of a compound that is named as a salt.
RESULT TYPE: pKi
Numbers only, as −log10 of the molar value.

[
  {
    "COMPOUND": "CSc1ccc(C2CN(C)Cc3cccc(Oc4cncc(CN5CCCCC5)c4)c32)cc1 (centres unmarked) [Example 4B, Trifluoroacetic Acid Salt]",
    "pKi": 6.29
  }
]

Would you mind giving pKi for every compound in the list below?
1. CSc1ccc(C2CN(C)Cc3cc(Oc4ccc(CN5CCC(F)CC5)cn4)ccc32)cc1 (centres unmarked)
2. CSc1ccc(C2CN(C)Cc3cc(Oc4cccc(CN5CCCCC5)c4)ccc32)cc1 (centres unmarked) [Example 1A, trifluoroacetic acid salt]
3. CSc1ccc(C2CN(C)Cc3cc(Oc4nc(CN5CCOCC5)cs4)ccc32)cc1 (centres unmarked)
4. CSc1ccc(C2CN(C)Cc3cc(Oc4nc(CN5CCCCC5)cs4)ccc32)cc1 (centres unmarked)
5. CSc1ccc(C2CN(C)Cc3cc(Oc4ccc(CN5CCCCC5)cn4)ccc32)cc1 (centres unmarked)
6. CSc1ccc(C2CN(C)Cc3cc(Oc4ncc(CN5CCCCC5)s4)ccc32)cc1 (centres unmarked)

1: 6.96; 2: 7.74; 3: 6.70; 4: 7.68; 5: 8.09; 6: 7.68

Can you look up the measured pKi of CSc1ccc(C2CN(C)Cc3cc(Oc4ccc(CN5CCOCC5)cn4)ccc32)cc1 (centres unmarked) for me?
6.59

----------
Structures can show the parent of a compound that is named as a salt.
Observed Ki, system Rat brain SERT (Rattus norvegicus, UniProt P31652).
Numbers only, in nM.

Consider the reported Ki for these molecules:
[
  {
    "MOLECULE": "CSc1ccc(C2CN(C)Cc3cc(Oc4ccc(CN5CCOCC5)cn4)ccc32)cc1 (centres unmarked) [Example 10]",
    "Ki (nM)": 11
  },
  {
    "MOLECULE": "CSc1ccc(C2CN(C)Cc3cc(Oc4ncc(CN5CCCCC5)s4)ccc32)cc1 (centres unmarked) [Example 13]",
    "Ki (nM)": 4
  },
  {
    "MOLECULE": "CSc1ccc(C2CN(C)Cc3cc(Oc4ccc(CN5CCCCC5)cn4)ccc32)cc1 (centres unmarked) [Example 7]",
    "Ki (nM)": 4.5
  },
  {
    "MOLECULE": "CSc1ccc(C2CN(C)Cc3cc(Oc4ccnc(CN5CCCCC5)c4)ccc32)cc1 (centres unmarked) [Example 3A, Trifluoroacetic Acid Salt]",
    "Ki (nM)": 25.7
  },
  {
    "MOLECULE": "CSc1ccc(C2CN(C)Cc3cc(Oc4cccc(CN5CCCCC5)c4)ccc32)cc1 (centres unmarked) [Example 1A, trifluoroacetic acid salt]",
    "Ki (nM)": 11.7
  }
]

Would you mind giving Ki for every molecule in the list below?
1. CSc1ccc(C2CN(C)Cc3cc(Oc4ccc(CN5CCCCC5)cc4)ccc32)cc1 (centres unmarked) [Example 9]
2. CSc1ccc(C2CN(C)Cc3cc(Oc4cccc(CN5CCCCC5)n4)ccc32)cc1 (centres unmarked) [Example 2, Trifluoroacetic Acid Salt]
3. CSc1ccc(C2CN(C)Cc3cc(Oc4ccc(CN5CCC(F)CC5)cn4)ccc32)cc1 (centres unmarked) [Example 12]
4. CSc1ccc(C2CN(C)Cc3cc(Oc4cc(CN5CCCCC5)ccn4)ccc32)cc1 (centres unmarked) [Example 5]

1: 4.3; 2: 11.7; 3: 14.3; 4: 8.7
